Taken from patent US20260258084A1.

What IC50 was measured for each of the following?
target_desc: human interleukin-23 receptor (recombinant human IL-23R-Fc chimera) (Homo sapiens)
Construct: Fc (IgG Fc fusion)
experiment_description: Human ELISA IL23/IL23R (assay for specific human IL23R antagonists)
Assay type: binding
stated_conditions: Table 10; read-out: Human ELISA IL23/IL23R IC50
Starred links: 1 amine or outer side, 2 acyl side, 3 side chain; linkers in the order of their positions; H or OH if unused. Positions of bridges follow the written chain, without caps; N, C: chain ends. Non-standard residues stand in square brackets, D forms with d. Residues, ends and D or L forms follow the SMILES beside them. *: point of attachment. X1 = O=C(CCCCN[*:3])N[C@@H](CS[*:2])C(=O)[*:1]; 2Nal = N[C@@H](Cc1ccc2ccccc2c1)C(=O)O; Me2NCH2CH2 = CN(C)CC*; Aib = CC(C)(N)C(=O)O; Ahx = NCCCCCC(=O)O
Numbers only, in nM.

Quick one: give me IC50 for each item below, same order please.
1. CC(=O)N[C@H]1CCCCNC(=O)[C@@H]2CSSC[C@H](NC(=O)[C@H](CCC(N)=O)NC(=O)[C@H](Cc3c[nH]c4ccccc34)NC1=O)C(=O)N[C@@H](Cc1ccc(OCCN(C)C)cc1)C(=O)N[C@@H](Cc1ccc3ccccc3c1)C(=O)NC(C)(C)C(=O)N[C@H](C(=O)N[C@@H](C)C(=O)NCC(N)=O)CCC(=O)NCCCCC(=O)N2 [compound 32] (Ac-KWQCY(Me2NCH2CH2)[2Nal][Aib]EAG-NH2; linker 1-4-8 via X1)
2. COc1ccc(C[C@@H]2NC(=O)[C@@H]3CSSC[C@H](NC(=O)CCCCCNC(=O)C[C@@H](C(=O)N[C@@H](CC(N)=O)C(=O)N[C@@H](CC(N)=O)C(N)=O)NC(=O)C(C)(C)NC(=O)[C@H](Cc4ccc5ccccc5c4)NC2=O)C(=O)N[C@@H](CC(N)=O)C(=O)N[C@@H]([C@@H](C)O)C(=O)N[C@@H](Cc2c[nH]c4ccccc24)C(=O)N[C@@H](CCC(N)=O)C(=O)N3)cc1 [compound 3] ([Ahx]CNTWQCY(Me)[2Nal][Aib]DNN-NH2; disulfide 2-7; lactam N-11)

Reply:
0.48
0.7
